Data origin, for the record: the supplement of paper PMC13380429

# System: A549-ACE2 infected with SARS-CoV-2
# testMethodNotes: morphology score (similarity to uninfected cells); higher = more like uninfected cells
# conditionSummary: 0.3 µM; 24 h
readoutType: morphology score

# compound, measuredResult
measured = [
    ("COc1ccc2cc(-c3nc(-c4ccc([S+](C)[O-])cc4)[nH]c3-c3ccncc3)ccc2c1 (centres undefined)", 0.15),
    ("CCN(CC)CCNC(=O)c1c(C)[nH]c(/C=C2\\C(=O)Nc3ccc(F)cc32)c1C", 0.35),
    ("CC(=O)N(O)[C@@H]1c2cc(C#N)ccc2OC(C)(C)[C@H]1O", 0.26),
    ("CC(C)C[C@H](NC(=O)CNC(=O)c1cc(Cl)ccc1Cl)B1OC(=O)C(CC(=O)O)(CC(=O)O)O1 [MLN9708]", 0.28),
]

====

# System: Calu-3
# testMethodNotes: cell viability relative to DMSO; higher = less toxic
# conditionSummary: 72 h; 10000 nM

# molecule, cell viability / %
rows = [
    ("c1ccc([C@@H]2C[C@H]2NC2CCNCC2)cc1", 93.4),
    ("O=CN1CCC(C(=O)NCCN2CCC(=C3c4ccccc4C=Cc4ccccc43)CC2)CC1", 88.7),
    ("NCCC(O)(P(=O)(O)O)P(=O)(O)O [pamidronate]", 93.8),
    ("N[C@@H](Cc1ccc(O)cc1)C(=O)O [plovamer-acetate]", 102),
    ("C[C@H](NC(=O)/C(C#N)=C/c1ccc(O)c(O)c1)c1ccccc1", 98.2),
    ("CC(CN(C)C)C(C)(O)Cc1ccc(Cl)cc1 (stereo not given)", 98.1),
    ("COc1ccc(NS(=O)(=O)c2ccc(I)cc2)cc1N1CCN(C)CC1", 101),
    ("CO[C@H]1/C=C/O[C@@]2(C)Oc3c(C)c(O)c4c(O)c(c(/C=N/N=C/N5CCCCC5)c(O)c4c3C2=O)NC(=O)/C(C)=C\\C=C\\[C@H](C)[C@H](O)[C@@H](C)[C@@H](O)[C@@H](C)[C@H](OC(C)=O)[C@@H]1C", 101),
    ("CC(C)c1ccc(C(=O)N=C(N)N)cc1S(C)(=O)=O [cariporide]", 106),
    ("Oc1cc2c(cc1O)C(c1ccccc1)CNCC2 (stereo not given)", 78),
]

====

// drug sensitivity score lookup, one value per entry
# System: Calu-3
# testMethodNotes: drug sensitivity score (DSS) for viability; higher = more toxic; extreme values may be limits of the assay
# conditionSummary: 72 h

# compound, drug sensitivity score
data = [
    ("CO[C@H]1/C=C/O[C@@]2(C)Oc3c(C)c(O)c4c(O)c(c(/C=N/N=C/N5CCCCC5)c(O)c4c3C2=O)NC(=O)/C(C)=C\\C=C\\[C@H](C)[C@H](O)[C@@H](C)[C@@H](O)[C@@H](C)[C@H](OC(C)=O)[C@@H]1C", 0),
    ("c1cnc(NCc2ccc(CNc3ncccn3)cc2)nc1 [MSX-122]", 0),
    ("CC[C@]1(O)C[C@@H]2CN(CCc3c([nH]c4ccccc34)[C@@](C(=O)OC)(c3cc4c(cc3OC)N(C)[C@H]3[C@@](O)(C(N)=O)[C@H](O)[C@]5(CC)C=CCN6CC[C@]43[C@@H]65)C2)C1 [vindesine]", 17.8),
    ("c1coc(-c2nnc3sc(C4CCCCC4)nn23)c1 [cardionogen-1]", 0),
    ("CC(C)[C@H](C(=O)Nc1ccc(C(=O)NO)cc1)c1ccccc1 [AR-42]", 14.2),
    ("CC(C)[C@@H](CN1CC[C@@](C)(c2cccc(O)c2)[C@@H](C)C1)NC(=O)[C@H]1Cc2ccc(O)cc2CN1 [JDTic]", 0.2),
    ("COCC[n+]1c2c(n(Cc3cnccn3)c1C)C(=O)c1ccccc1C2=O [YM-155]", 39),
    ("CC(=O)OC[C@H](N)C(=O)O [O-acetyl-L-serine]", 0),
]
